# assay-summary: self-splicing fitness, log relative to wild type (ln ratio); higher = more splicing; Tetrahymena group I intron in knt gene, E. coli kanamycin selection, DiMSum; sequences stand for … in CUCUCU…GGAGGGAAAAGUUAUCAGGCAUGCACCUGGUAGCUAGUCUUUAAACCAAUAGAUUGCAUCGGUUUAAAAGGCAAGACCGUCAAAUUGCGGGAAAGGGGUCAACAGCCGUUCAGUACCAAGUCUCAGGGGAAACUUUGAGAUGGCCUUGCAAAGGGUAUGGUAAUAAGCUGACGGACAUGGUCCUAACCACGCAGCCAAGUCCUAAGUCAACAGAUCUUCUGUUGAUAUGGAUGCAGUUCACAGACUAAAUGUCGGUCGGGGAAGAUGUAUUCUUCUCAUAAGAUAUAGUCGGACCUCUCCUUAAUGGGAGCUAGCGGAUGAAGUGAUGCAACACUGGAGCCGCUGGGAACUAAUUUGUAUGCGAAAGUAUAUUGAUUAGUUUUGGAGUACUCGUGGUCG;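 also: selection with 25 µg/mL kanamycin versus none on LB agar overnight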
# assay-context: 37 °C
Listed sequences paired with reported self-splicing fitness (ln)

Here's what some known entries look like.
CGUCAGCAAUAUUACGCACC: -0.192
AGCAAGCAAUAUUACGGUGU: -0.608
GCUGAGCAAUAUUACGGAAU: -1.3
CUGAAGCAAUAUUACGUAGA: -1.75
AACCAGCAAUAUUACGGAAG: 0.117

Name the reported self-splicing fitness (ln) value associated with the sequence GUCAAGCAAUAUUACGCCCA
-1.11

Also, UGCUAGCAAUAUUACGACUG please.
0.259

Also, CAAAAGCAAUAUUACGUAAU please.
-3.04

Also, GACCAGCAAUAUUACGGGUA please.
-0.146

Also, AUUAAGCAAUAUUACGCCCC please.
0.0189

Also, CCUGAGCAAUAUUACGUCAC please.
-1.54

Also, UACUAGCAAUAUUACGAACU please.
-1.51

Also, GCCUAGCAAUAUUACGUACC please.
-0.205

Also, AGGUAGCAAUAUUACGUGGG please.
-2.98

Also, ACGAAGCAAUAUUACGCCAC please.
-2.56

Also, CUCGAGCAAUAUUACGCCUG please.
-2.58

Also, UUUGAGCAAUAUUACGAAGA please.
-1.55

Also, AUCAAGCAAUAUUACGGAUA please.
-1.83

Also, AGUAAGCAAUAUUACGUUUG please.
-2.13

Also, UCCGAGCAAUAUUACGAUUG please.
-1.77

Also, UGUGAGCAAUAUUACGGGAA please.
-2.51

Also, GAUUAGCAAUAUUACGUAAU please.
-0.741

Also, AGCGAGCAAUAUUACGGAAC please.
-1.5

Also, CUGCAGCAAUAUUACGCAGA please.
-2.97

Also, GAACAGCAAUAUUACGAUCA please.
-0.214

====

# assay-summary: self-splicing fitness, log relative to wild type (ln ratio); higher = more splicing; Tetrahymena group I intron in knt gene, E. coli kanamycin selection, DiMSum; sequences stand for … in CUCUCU…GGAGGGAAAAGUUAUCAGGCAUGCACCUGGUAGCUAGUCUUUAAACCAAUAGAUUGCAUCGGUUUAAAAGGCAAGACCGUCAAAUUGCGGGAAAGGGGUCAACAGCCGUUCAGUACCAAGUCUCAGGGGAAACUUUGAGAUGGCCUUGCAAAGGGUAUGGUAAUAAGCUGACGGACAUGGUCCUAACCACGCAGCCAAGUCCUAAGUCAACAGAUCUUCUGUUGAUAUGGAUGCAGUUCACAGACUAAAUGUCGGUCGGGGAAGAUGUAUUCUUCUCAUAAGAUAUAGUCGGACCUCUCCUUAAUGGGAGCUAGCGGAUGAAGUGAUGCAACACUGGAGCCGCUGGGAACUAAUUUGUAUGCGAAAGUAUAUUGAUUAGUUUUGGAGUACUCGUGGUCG
# assay-context: 30 °C
The label depends only on self-splicing fitness (ln): met if it is at least -1, not met if it is smaller.

Previously resolved entries follow.
GCGGAGCAAUAUUACGUCGU: not met
CUAUAGCAAUAUUACGGUUG: met
UUGAAGCAAUAUUACGACGA: met

Does self-splicing fitness (ln) meet or surpass -1 for AUCAAGCAAUAUUACGCGGG ?
not met

====

# assay-summary: self-splicing fitness, log relative to wild type (ln ratio); higher = more splicing; Tetrahymena group I intron in knt gene, E. coli kanamycin selection, DiMSum; sequences stand for … in CUCUCU…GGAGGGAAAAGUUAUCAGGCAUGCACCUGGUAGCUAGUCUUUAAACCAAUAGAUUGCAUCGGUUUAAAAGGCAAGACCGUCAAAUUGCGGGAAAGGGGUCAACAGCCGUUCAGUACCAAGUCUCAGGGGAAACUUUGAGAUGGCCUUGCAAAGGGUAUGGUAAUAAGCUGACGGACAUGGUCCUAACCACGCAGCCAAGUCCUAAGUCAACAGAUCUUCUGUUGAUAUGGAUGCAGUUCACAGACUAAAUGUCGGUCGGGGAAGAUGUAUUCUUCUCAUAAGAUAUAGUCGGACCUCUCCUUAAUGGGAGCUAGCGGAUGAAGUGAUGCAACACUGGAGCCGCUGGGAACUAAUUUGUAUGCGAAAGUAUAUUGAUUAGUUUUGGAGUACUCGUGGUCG
# assay-context: 30 °C
endpoint: self-splicing fitness (ln)
API doc: respond with a numeric literal and nothing else, no unit.

GGGGAGCAAUAUUACGGGCA: -2.87
GACAAGCAAUAUUACGCAAU: -3.08
UAAUAGCAAUAUUACGCUCA: -0.0964
AUCAAGCAAUAUUACGACAA: -1

Continue with the sequence presented below.
Name the reported self-splicing fitness (ln) value associated with the sequence GCCCAGCAAUAUUACGUGCU
-3.14

====

# assay-summary: self-splicing fitness, log relative to wild type (ln ratio); higher = more splicing; Tetrahymena group I intron in knt gene, E. coli kanamycin selection, DiMSum; sequences stand for … in CUCUCU…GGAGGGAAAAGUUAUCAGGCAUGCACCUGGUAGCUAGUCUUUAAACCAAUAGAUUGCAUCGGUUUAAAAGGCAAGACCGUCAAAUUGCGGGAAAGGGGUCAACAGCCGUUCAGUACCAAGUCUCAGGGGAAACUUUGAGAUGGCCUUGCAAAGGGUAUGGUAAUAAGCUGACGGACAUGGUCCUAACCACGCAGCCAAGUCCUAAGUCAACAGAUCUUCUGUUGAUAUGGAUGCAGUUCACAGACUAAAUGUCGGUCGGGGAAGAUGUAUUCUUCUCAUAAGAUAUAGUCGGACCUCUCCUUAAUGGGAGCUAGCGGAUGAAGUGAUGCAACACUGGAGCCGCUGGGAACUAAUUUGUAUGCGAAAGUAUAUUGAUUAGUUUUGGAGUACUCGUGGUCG
# assay-context: 37 °C
Listed sequences paired with reported self-splicing fitness (ln)
API doc: respond with a numeric literal and nothing else, no unit.

Name the reported self-splicing fitness (ln) value associated with the sequence CCCGAGCAAUAUUACGUUAC
-2.37

Also, AAUGAGCAAUAUUACGGGAU please.
-3.09

Also, GACGAGCAAUAUUACGGCGU please.
-1.9

Also, AGCGAGCAAUAUUACGGGUU please.
-1.09

Also, AUCCAGCAAUAUUACGCUCU please.
0.709

Also, AAUGAGCAAUAUUACGAUUC please.
-2.43

====

# assay-summary: self-splicing fitness, log relative to wild type (ln ratio); higher = more splicing; Tetrahymena group I intron in knt gene, E. coli kanamycin selection, DiMSum; sequences stand for … in CUCUCU…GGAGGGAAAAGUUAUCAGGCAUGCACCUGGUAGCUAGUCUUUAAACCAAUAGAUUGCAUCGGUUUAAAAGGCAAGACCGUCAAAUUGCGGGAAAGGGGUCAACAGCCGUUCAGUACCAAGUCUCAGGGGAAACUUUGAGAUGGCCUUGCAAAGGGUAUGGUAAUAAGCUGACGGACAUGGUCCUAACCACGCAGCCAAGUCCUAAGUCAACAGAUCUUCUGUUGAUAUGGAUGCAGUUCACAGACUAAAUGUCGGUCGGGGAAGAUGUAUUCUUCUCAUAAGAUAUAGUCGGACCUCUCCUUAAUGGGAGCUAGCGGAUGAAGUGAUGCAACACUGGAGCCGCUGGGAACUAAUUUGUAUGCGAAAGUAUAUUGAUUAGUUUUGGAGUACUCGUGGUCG
# assay-context: 37 °C
Listed sequences paired with reported self-splicing fitness (ln)
API doc: respond with a numeric literal and nothing else, no unit.

Here's what some known entries look like.
AAAAAGCAAUAUUACGAGUU: -0.488
ACUAAGCAAUAUUACGAACG: -0.438
CACAAGCAAUAUUACGUGUG: -2.69

Name the reported self-splicing fitness (ln) value associated with the sequence CUGGAGCAAUAUUACGACCA
-1.61

Also, UGAAAGCAAUAUUACGGUCA please.
0.339

Also, GAACAGCAAUAUUACGGGUC please.
-3
